All values here come from paper PMC9482650.

Molecular target: T1, DFNB31_1, Q9P202
T1 sequence (Q9P202 135-233, limits assumed, looked up): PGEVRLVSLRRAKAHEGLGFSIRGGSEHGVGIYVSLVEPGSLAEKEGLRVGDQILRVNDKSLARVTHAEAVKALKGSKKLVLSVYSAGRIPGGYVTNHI
Assay: holdup assay
Design: key: below the threshold = too weak to quantify, mostly under pKd 3.1 to 4
Settings: plain residues with an end cap or a label only (N-terminal biotin on a linker: ado-ado)
result-type: pKd
One number for each entry.

binder | obs-value
LPHGHSTTRV [NLGN4X, Q8N0W4] | 4.06
VDSTVKVWTC [TRAF7, Q6Q0C0] | 3.58
LPHPHSTTRV [NLGN2, Q8NFZ4] | 4.13

Q. Return pKd for the following binder: TPPAAKKSRI [BAZ1A, Q9NRL2]
A. 3.68
